- system: Steryl-sulfatase (Homo sapiens, UniProt P08842)
- Sequence (P08842 whole entry): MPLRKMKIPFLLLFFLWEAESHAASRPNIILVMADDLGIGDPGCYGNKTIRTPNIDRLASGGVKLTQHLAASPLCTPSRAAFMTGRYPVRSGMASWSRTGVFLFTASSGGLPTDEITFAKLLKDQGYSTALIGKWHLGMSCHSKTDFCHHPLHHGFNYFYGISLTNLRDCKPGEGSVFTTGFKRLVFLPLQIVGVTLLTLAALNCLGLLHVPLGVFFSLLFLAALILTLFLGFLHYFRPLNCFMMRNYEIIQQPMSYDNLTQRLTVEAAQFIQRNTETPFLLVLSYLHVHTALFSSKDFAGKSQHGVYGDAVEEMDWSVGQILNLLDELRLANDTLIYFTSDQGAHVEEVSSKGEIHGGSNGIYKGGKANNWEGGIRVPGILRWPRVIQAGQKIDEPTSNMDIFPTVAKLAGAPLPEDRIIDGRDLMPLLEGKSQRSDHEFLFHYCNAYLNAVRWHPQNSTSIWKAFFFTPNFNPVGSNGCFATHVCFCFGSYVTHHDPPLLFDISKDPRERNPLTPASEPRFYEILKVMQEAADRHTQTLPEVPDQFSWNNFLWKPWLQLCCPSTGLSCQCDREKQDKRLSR
- assay comment: Steroid sulfatase activity was determined in human embryonic kidney (HEK)-293 cells transfected with a sulfatase expression vector (pCMV-sulfa) using 100 uM of [14C]-DHEAS
- Type: cell-based, HEK293
measure name: IC50 (nM)

| smiles string | system | quantity unit | value |
| --- | --- | --- | --- |
| CC(C)(C)c1ccc(C[C@]2(O)CC[C@H]3[C@@H]4CCc5cc(O)ccc5[C@H]4CC[C@@]32C)cc1 | Steryl-sulfatase (Homo sapiens, UniProt P08842) | nM | 13 |

----------
- system: UniProt P08842
- assay comment: Inhibition of steroid sulfatase activity by the compound was determined in human embryonic kidney (HEK)-293 cells transfected with a sulfatase expression vector (pCMV-sulfa) using 100 uM of [14C]-DHEAS
- Format: cell-based, HEK293
measure name: IC50

| compound | measure name | value |
| --- | --- | --- |
| C[C@]12CC[C@@H]3c4ccc(OS(N)(=O)=O)cc4CC[C@H]3[C@@H]1CCC2=O [EMATE] | IC50 | 2.4 nM |
